target: TYK2-JH2 (aa 575-869, in-house) protein (Homo sapiens, UniProt P29597); construct: TYK2-JH2 (aa 575-869, in-house) protein; made in house; test: TYK2-JH2 biochemical assay (HTRF, blocking of TYK2-JH2 protein with its probe); format: binding; conditions: TYK2-JH2 vs JAK1-JH2 biochemical IC50
Sequence (P29597 575-869): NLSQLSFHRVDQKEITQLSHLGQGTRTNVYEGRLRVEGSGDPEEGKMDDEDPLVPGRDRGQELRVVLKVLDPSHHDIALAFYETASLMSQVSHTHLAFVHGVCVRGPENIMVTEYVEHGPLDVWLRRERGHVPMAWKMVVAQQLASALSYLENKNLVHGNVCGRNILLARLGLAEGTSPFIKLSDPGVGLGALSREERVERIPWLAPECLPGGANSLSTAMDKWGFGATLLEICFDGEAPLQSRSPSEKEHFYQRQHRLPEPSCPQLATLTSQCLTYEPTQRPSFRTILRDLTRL
measurement kind: Biochemical assay Selectivity fold (TYK2/JAK1) (fold)

> print(dat)
                                    compound  op  measured.result
 1  CNC(=O)c1nnc(NC(=O)C2CC2)cc1Nc1nc2ccc(N3CC(N(C)C)C3)cn2n1   =               26
 2  CNC(=O)c1nnc(NC(=O)C2CC2)cc1Nc1nc2ccc(N3CC(C)(C)C3)cn2n1   =               68
 3  CNC(=O)c1nnc(NC(=O)C2CC2)cc1Nc1nc2ccc(N3CC(Oc4ccc(F)cc4F)C3)cn2n1   =               60
 4  CNC(=O)c1nnc(NC(=O)C2CC2)cc1Nc1nc2ccc(N3CCC(N4CC(N(C)C)C4)CC3)cn2n1   =               36
 5  CNC(=O)c1nnc(NC(=O)C2CC2)cc1Nc1nc2ccc(P(C)(C)=O)cn2n1   =               23
 6  CNC(=O)c1nnc(NC(=O)C2CC2)cc1Nc1nc2ccc(C3CN(C(=O)N4CCOCC4)C3)cn2n1   =               38
 7  CNC(=O)c1nnc(NC(=O)C2CC2)cc1Nc1nc2ccc(N3CCC(C4CN(C)C4)CC3)cn2n1 [Example P1]   =               36
 8  CNC(=O)c1nnc(NC(=O)C2CC2)cc1Nc1nc2cc(OC)c(N3CCC3)cn2n1   =                2
 9  CNC(=O)c1nnc(NC(=O)C2CC2)cc1Nc1nc2ccc(N3CC(C(C)O)C3)cn2n1 (stereo not shown)   =               24
10  CNC(=O)c1nnc(NC(=O)C2CC2)cc1Nc1nc2ccc(N3CCCC(N4CC(F)(F)C4)C3)cn2n1 (stereo not shown)   =               55
11  CNC(=O)c1nnc(NC(=O)C2CC2)cc1Nc1nc2ccccc2o1   >               22
12  CNC(=O)c1nnc(NC(=O)C2CC2)cc1Nc1nc2ccc(N3CC(OCCOC)C3)cn2n1   =               20
13  CNC(=O)c1nnc(NC(=O)C2CC2)cc1Nc1nc2ccc(OC3CN(C(C)=O)C3)cn2n1   =               15
14  CNC(=O)c1nnc(NC(=O)C2CC2)cc1Nc1nc2ccc(C(=O)N3CCC3)cn2n1   =                6
15  CNC(=O)c1nnc(NC(=O)C2CC2)cc1Nc1nc2ccc(N3CC(N4CCCCC4)C3)cn2n1   =               16
16  CNC(=O)c1nnc(NC(=O)C2CC2)cc1Nc1nc2ccc(OC3CNC3)cn2n1   =                9
